Recorded values, source ChEMBL document CHEMBL4261581.

pEC50: −log10 of the molar value.
These compounds were tested on Estrogen receptor beta (Homo sapiens, UniProt Q92731); pEC50 is the recorded read-out.
Sequence (Q92731 whole entry): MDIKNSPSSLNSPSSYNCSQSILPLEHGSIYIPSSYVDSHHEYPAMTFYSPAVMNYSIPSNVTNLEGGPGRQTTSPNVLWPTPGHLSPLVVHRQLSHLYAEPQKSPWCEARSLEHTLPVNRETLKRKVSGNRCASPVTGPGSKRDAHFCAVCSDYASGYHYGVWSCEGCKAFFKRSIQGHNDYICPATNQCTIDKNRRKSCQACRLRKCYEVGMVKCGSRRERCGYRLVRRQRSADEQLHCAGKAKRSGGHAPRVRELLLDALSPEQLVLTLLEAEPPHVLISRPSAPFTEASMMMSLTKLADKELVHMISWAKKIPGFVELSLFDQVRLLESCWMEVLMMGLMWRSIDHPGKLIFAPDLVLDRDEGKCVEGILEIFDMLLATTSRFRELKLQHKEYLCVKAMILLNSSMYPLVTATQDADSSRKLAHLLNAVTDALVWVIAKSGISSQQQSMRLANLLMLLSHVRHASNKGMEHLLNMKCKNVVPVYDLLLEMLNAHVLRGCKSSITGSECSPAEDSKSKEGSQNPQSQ
recorded_endpoint: pEC50

- compound: "OCC1CCCC(c2ccc(O)cc2)CC1 (racemic)"
  subject_of_test: "Estrogen receptor beta (Homo sapiens, UniProt Q92731)"
  result: "< 4.00"
- compound: "OC[C@H]1CCC[C@H](c2ccc(O)cc2)CC1 (stereo in doubt)"
  subject_of_test: "Estrogen receptor beta (Homo sapiens, UniProt Q92731)"
  result: "< 4.45"
- compound: "OC[C@H]1CCC[C@@H](c2ccc(O)cc2)CC1"
  subject_of_test: "Estrogen receptor beta (Homo sapiens, UniProt Q92731)"
  result: "< 5.00"
- compound: "O/N=C1\\CCCC(c2ccc(O)cc2)CC1 (racemic)"
  subject_of_test: "Estrogen receptor beta (Homo sapiens, UniProt Q92731)"
  result: "< 5.00"
- compound: "Oc1ccc(C2CCCC(O)CC2)cc1 (racemic)"
  subject_of_test: "Estrogen receptor beta (Homo sapiens, UniProt Q92731)"
  result: "< 5.00"
- compound: "OCCC1CCCC(c2ccc(O)cc2)CC1 (racemic)"
  subject_of_test: "Estrogen receptor beta (Homo sapiens, UniProt Q92731)"
  result: "< 5.00"
- compound: "OC[C@@H]1CCC[C@H](c2ccc(O)cc2)CC1"
  subject_of_test: "Estrogen receptor beta (Homo sapiens, UniProt Q92731)"
  result: "< 4.94"
- compound: "OC[C@@H]1CCC[C@@H](c2ccc(O)cc2)CC1 (stereo in doubt)"
  subject_of_test: "Estrogen receptor beta (Homo sapiens, UniProt Q92731)"
  result: "< 4.63"
